// reported Binding to Human CTLA4 per item
molecular target: T1, hCTLA4-His-BAP (human CTLA4 extracellular region with C-terminal His-tag and BAP-tag) (human, biotin on the BAP-tag); assay: SPR 37C, hCTLA4 1000 nM, ATP 1 µM; ATP 1 µM; binding amount at 1000 nM hCTLA4
T1 construct: also called hCTLA4-His-Biotin
T1 sequence (chain, as listed by the source limits assumed): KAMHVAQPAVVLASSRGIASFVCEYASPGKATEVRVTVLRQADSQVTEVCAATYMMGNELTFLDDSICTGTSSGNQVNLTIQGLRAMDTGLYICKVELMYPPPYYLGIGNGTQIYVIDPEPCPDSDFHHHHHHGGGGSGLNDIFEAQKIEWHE

binder	Binding to Human CTLA4
04H1208-G1m/04L1086-lam1 (antibody, human IgG1, lambda, V domains shown) VH: EVQLVESGGGLVKPGGSLRLSCAASGFTFSSKTMNWVRQAPGKGLEWVSSISTRSGYIYYARSVKGRFTISRDNAKNSLYLQMNSLRAEDTAVYYCARYGKREDMLWVFDYWGQGTLVTVSS VL: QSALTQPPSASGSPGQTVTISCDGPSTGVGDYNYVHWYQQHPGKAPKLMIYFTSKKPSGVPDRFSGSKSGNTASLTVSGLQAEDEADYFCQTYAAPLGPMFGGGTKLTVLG	0.03 per unit amount of antibody
04H1077-G1m/04L1034-lam1 (antibody, human IgG1, lambda, V domains shown) VH: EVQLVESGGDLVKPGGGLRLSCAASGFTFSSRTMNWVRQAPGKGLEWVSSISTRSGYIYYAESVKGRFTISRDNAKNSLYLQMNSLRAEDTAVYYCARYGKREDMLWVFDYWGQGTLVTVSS VL: QSALTQPPSASGSPGQTVTISCDGPSTDVGDYNWVSWYQQHPGKAPKLMIYFTSKKPSGVPDRFSGSKSGNTASLTVSGLQAEDEADYFCSTYAAPLGPMFGGGTKLTVLG	0.007 per unit amount of antibody
04H1077-G1m/04L1041-lam1 (antibody, human IgG1, lambda, V domains shown) VH: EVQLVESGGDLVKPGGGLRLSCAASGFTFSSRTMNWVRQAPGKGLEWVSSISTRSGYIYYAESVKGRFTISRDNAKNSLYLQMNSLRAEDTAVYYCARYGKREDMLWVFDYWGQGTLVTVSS VL: QSALTQPPSASGSPGQTVTISCDGPSTDVGDYNYVHWYQQHPGKAPKLMIYFTSKKPSGVPDRFSGSKSGNTASLTVSGLQAEDEADYFCSTYAAPLGPMFGGGTKLTVLG	0.023 per unit amount of antibody

All figures here come from patent US20260022175A1.
